Study System: UniProt P41145
Measurement Notes: κ-opioid receptor β-Arr2 activity response, U2OS cells
Assay type: cell-based
Parameters: expressed in transfected cells; host or cells: U-2 OS
Please respond with reported EC50 for every item in the list.
# answer = value followed by unit

Q: Given `COc1ccc2c(c1)[C@]1(CCO)CCN(CC3CC3)[C@H](C2)[C@@H]1C` , state its recorded EC50.
Ans: 0.494 µM

Q: Then `C[C@H]1[C@H]2Cc3ccc(O)cc3[C@]1(CCO)CCN2C` ?
Ans: 5.52 µM

###

Study System: μ-opioid receptor (Homo sapiens, UniProt P35372)
Sequence (P35372 whole entry, species assumed): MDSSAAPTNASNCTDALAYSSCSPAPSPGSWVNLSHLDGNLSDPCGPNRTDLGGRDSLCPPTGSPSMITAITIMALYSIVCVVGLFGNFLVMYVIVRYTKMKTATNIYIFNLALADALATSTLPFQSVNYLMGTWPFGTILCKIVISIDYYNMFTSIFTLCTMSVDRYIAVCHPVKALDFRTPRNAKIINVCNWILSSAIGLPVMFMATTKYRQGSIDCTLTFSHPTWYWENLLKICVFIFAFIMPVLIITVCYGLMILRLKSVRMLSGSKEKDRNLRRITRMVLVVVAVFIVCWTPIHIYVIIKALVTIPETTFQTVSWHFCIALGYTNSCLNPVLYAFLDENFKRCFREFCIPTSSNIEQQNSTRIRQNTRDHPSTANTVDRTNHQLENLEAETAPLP
Measurement Notes: μ-opioid receptor GTPγS functional assay, U2OS cells
Measurement Setup: read-out: GTPγS μ Emax
Please respond with reported Emax for every item in the list.
State the answer as a number, implicitly in %.

Q: Given `C[C@H]1[C@H]2Cc3ccc(O)cc3[C@]1(CCN1CCN(C(c3ccc(F)cc3)c3ccc(F)cc3)CC1)CCN2C` , state its recorded Emax.
Ans: 100

Q: Then `C[C@H]1[C@H]2Cc3ccc(O)cc3[C@]1(CCNC(=O)Cc1ccc(C(=O)O)cc1)CCN2CC1CC1` ?
Ans: 58

Q: Then `COc1ccc2c(c1)[C@]1(CCNC(=O)CN)CCN(CC3CC3)[C@H](C2)[C@@H]1C` ?
Ans: 56

Q: Then `COc1ccc2c(c1)[C@@]1(CCO)CCN(C)[C@@H](C2)[C@H]1C` ?
Ans: 21

Q: Then `C[C@H]1[C@H]2Cc3ccc(O)cc3[C@]1(CCNC(=O)Nc1ccc(C(=O)O)cc1)CCN2CC1CC1` ?
Ans: 72.5

Q: Then `C[C@H]1[C@H]2Cc3ccc(O)cc3[C@]1(CCCC(=O)N(C)C)CCN2CC1CCC1` ?
Ans: 57.3

Q: Then `COc1ccc2c(c1)[C@@]1(CCOCc3ccccc3)CCN(C)[C@@H](C2)[C@H]1C` ?
Ans: 72.3

Q: Then `CC(C)C[C@H](NCCCC[C@]12CCN(CC3CC3)[C@H](Cc3ccc(O)cc31)[C@@H]2C)C(=O)O` ?
Ans: 77.3

Q: Then `C[C@H]1[C@H]2Cc3ccc(O)cc3[C@]1(CCOc1cncc(C(=O)O)c1)CCN2C` ?
Ans: 89

Q: Then `COc1ccc2c(c1)[C@]1(CCNC(=O)[C@@H]3CCCN3C(C)=O)CCN(CC3CC3)[C@H](C2)[C@@H]1C` ?
Ans: 75.2

Q: Then `C[C@H]1[C@H]2Cc3ccc(O)cc3[C@]1(CCNS(C)(=O)=O)CCN2CC1CC1` ?
Ans: 16.7

Q: Then `C[C@H]1[C@H]2Cc3ccc(O)cc3[C@]1(CCNCCc1ccc(S(N)(=O)=O)cc1)CCN2C` ?
Ans: 74

Q: Then `CCOC(=O)c1ccc(NC(=O)NCC[C@]23CCN(CC4CC4)[C@H](Cc4ccc(OC)cc42)[C@@H]3C)cc1` ?
Ans: 62

Q: Then `COc1ccc2c(c1)[C@]1(CCO)CCN(C)[C@H](C2)[C@@H]1C` ?
Ans: 88.3

Q: Then `COc1ccc2c(c1)[C@]1(CCNC(=O)[C@H](C)NC(C)=O)CCN(CC3CC3)[C@H](C2)[C@@H]1C` ?
Ans: 80.2

###

Study System: μ-opioid receptor (Homo sapiens, UniProt P35372)
Measurement Notes: biochemical
Set-up: purchased Perkin Elmer, Shelton, Conn; host or cells: HEK-293 or CHO
Measurement Setup: HEK-293 or CHO cells; read-out: GTPγS μ EC50
pEC50: −log10 of the molar value.
Use 8 as the dividing line for pEC50, with the line itself on the yes side and lower values as no.

Q: Test whether the compound C[C@H]1[C@H]2Cc3ccc(O)cc3[C@]1(CCNC(=O)[C@@H]1CCC(=O)N1)CCN2CC1CC1 [Compound 81] records pEC50 of 8 or higher.
Ans: no

Q: Then C[C@H]1[C@H]2Cc3ccc(O)cc3C1(CCN[C@H]1C[C@H]3CCC[C@@H](C1)N3[C@@H]1C[C@@H]3CCCC[C@@H](C3)C1)CCN2C [Compound 63] ?
Ans: yes

Q: Then C[C@H]1[C@H]2Cc3ccc(O)cc3[C@]1(CCNC(=O)[C@@H]1CCCN1)CCN2C [Compound 71] ?
Ans: no

Q: Then C[C@H]1[C@H]2Cc3ccc(O)cc3[C@]1(CCNC(=O)NCc1ccccc1)CCN2CC1CC1 [Compound 21] ?
Ans: yes

Q: Then C[C@H]1[C@H]2Cc3ccc(O)cc3[C@]1(CCNC(=O)[C@@H]1CCC(=O)N1)CCN2C [Compound 72] ?
Ans: no

Q: Then C[C@H]1[C@H]2Cc3ccc(O)cc3[C@]1(CCN1CCC(N(C3CC3)S(=O)(=O)c3ccc(Cl)cc3)CC1)CCN2C [Compound 58] ?
Ans: no

###

Study System: UniProt P35372
Measurement Notes: μ-opioid receptor radioligand binding assay ([3H]-diprenorphine)
Set-up: purchased Perkin Elmer, Shelton, Conn; host or cells: HEK-293 or CHO
Measurement Setup: HEK-293 or CHO cells; read-out: Ki (nM) Opioid Receptor μ
Test Readout: Ki (nM)
State the answer as a number, implicitly in nM.

Q: Given C[C@H]1[C@H]2Cc3ccc(O)cc3[C@]1(CCCCN[C@@H](CCCCN)C(=O)O)CCN2CC1CC1 [Compound 25] , state its recorded Ki.
Ans: 3.58

Q: Then COC(=O)[C@@H](NCC[C@@]12CCN(CC3CC3)[C@@H](Cc3ccc(OC)cc31)[C@H]2C)C(C)C [Compound 37] ?
Ans: 13900

Q: Then COc1ccc2c(c1)[C@]1(CCNC(=O)CN)CCN(CC3CC3)[C@H](C2)[C@@H]1C [Compound 33] ?
Ans: 936

Q: Then COc1ccc2c(c1)[C@@]1(CCOCc3ccccc3)CCN(CC3CC3)[C@@H](C2)[C@H]1C [Compound 44] ?
Ans: 1840

Q: Then C[C@H]1[C@H]2Cc3ccc(O)cc3[C@]1(CCCC(=O)N(C)C)CCN2CC1CCC1 [Compound 28] ?
Ans: 1.45

Q: Then COc1ccc2c(c1)[C@]1(CCNCC(=O)O)CCN(CC3CC3)[C@H](C2)[C@@H]1C [Compound 36] ?
Ans: 1020

Q: Then COC(=O)c1ccc(CC(=O)NCC[C@]23CCN(CC4CC4)[C@H](Cc4ccc(OC)cc42)[C@@H]3C)cc1 [Compound 30] ?
Ans: 389

###

Study System: κ-opioid receptor (Homo sapiens)
Sequence (P41145 whole entry): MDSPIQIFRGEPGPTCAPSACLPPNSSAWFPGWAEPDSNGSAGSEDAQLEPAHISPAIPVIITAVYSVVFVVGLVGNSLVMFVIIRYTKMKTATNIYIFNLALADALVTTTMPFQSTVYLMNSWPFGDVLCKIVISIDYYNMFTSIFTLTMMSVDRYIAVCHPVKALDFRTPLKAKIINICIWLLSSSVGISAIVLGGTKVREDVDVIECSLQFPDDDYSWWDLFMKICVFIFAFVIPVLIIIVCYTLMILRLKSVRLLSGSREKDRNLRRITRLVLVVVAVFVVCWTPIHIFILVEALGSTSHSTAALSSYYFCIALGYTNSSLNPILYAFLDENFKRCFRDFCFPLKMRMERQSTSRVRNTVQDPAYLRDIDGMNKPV
Measurement Notes: κ-opioid receptor β-Arr2 activity response, U2OS cells
Format: cell-based
Design: expressed in transfected cells; host or cells: U-2 OS
Measurement Setup: U2OS cells; read-out: β-Arr2 κ EC50
Test Readout: EC50
# answer = value followed by unit

Q: Given COC(=O)[C@H](Cc1ccccc1)NCCCC[C@]12CCN(CC3CC3)[C@H](Cc3ccc(O)cc31)[C@@H]2C [Compound 27] , state its recorded EC50.
Ans: 0.27 nM

Q: Then C[C@H]1[C@H]2Cc3ccc(O)cc3[C@]1(CCNC(=O)Nc1ccc(C(=O)O)cc1)CCN2CC1CC1 [Compound 2] ?
Ans: 8.4 nM

Q: Then CC(C)C[C@H](NCCCC[C@]12CCN(CC3CC3)[C@H](Cc3ccc(O)cc31)[C@@H]2C)C(=O)O [Compound 24] ?
Ans: 3.56 nM

Q: Then C[C@H]1[C@H]2Cc3ccc(O)cc3[C@]1(CCNC(=O)Cc1ccc(C(=O)O)cc1)CCN2CC1CC1 [Compound 31] ?
Ans: 53.4 nM

Q: Then COc1ccc2c(c1)[C@]1(CCNC(=O)[C@H](C)NC(C)=O)CCN(CC3CC3)[C@H](C2)[C@@H]1C [Compound 4] ?
Ans: 403 nM

Q: Then C[C@H]1[C@H]2Cc3ccc(O)cc3[C@]1(CC(=O)N1CCC(N(C3CC3)S(=O)(=O)c3ccc(Cl)cc3)CC1)CCN2C [Compound 61] ?
Ans: 7290 nM

Q: Then C[C@H]1[C@H]2Cc3ccc(O)cc3[C@]1(CCCC(N)=O)CCN2CC1CCC1 [Compound 29] ?
Ans: 2.06 nM

Q: Then C[C@H]1[C@H]2Cc3ccc(O)cc3[C@]1(CCNC(=O)c1ccc(C(=O)O)cc1)CCN2CC1CC1 [Compound 32] ?
Ans: 26.7 nM

Q: Then C[C@H]1[C@H]2Cc3ccc(O)cc3[C@]1(CCCC(=O)N(C)C)CCN2CC1CCC1 [Compound 28] ?
Ans: 2.37 nM

Q: Then C[C@H]1[C@H]2Cc3ccc(O)cc3[C@]1(CCN1CCC(N(C3CC3)S(=O)(=O)c3ccc(Cl)cc3)CC1)CCN2C [Compound 58] ?
Ans: 8900 nM

Q: Then CCOC(=O)c1ccc(NC(=O)NCC[C@]23CCN(CC4CC4)[C@H](Cc4ccc(OC)cc42)[C@@H]3C)cc1 [Compound 1] ?
Ans: 63.8 nM

Q: Then C[C@H]1[C@H]2Cc3ccc(O)cc3[C@]1(CCN1CCS(=O)(=O)CC1)CCN2C [Compound 10] ?
Ans: 4660 nM

Q: Then COc1ccc2c(c1)[C@]1(CCOCc3ccccc3)CCN(CC3CC3)[C@H](C2)[C@@H]1C [Compound 45] ?
Ans: 26.7 nM

Q: Then COc1ccc2c(c1)[C@]1(CCNC(=O)CN)CCN(CC3CC3)[C@H](C2)[C@@H]1C [Compound 33] ?
Ans: 12.8 nM
